Tested on: control sera (pooled serum of ten healthy LUMC hospital workers; commercial negative donor pooled serum from the Dutch bloodbank)
Type: binding, human
Set-up: unit not given here
attribute.measured: Binding of Control serum Blood-bank to linear peptides

Here's what some known entries look like.
IGYYRRATRRVRGGD 0.7
HPLADNKFALTCTST 0.7

Lab note: `CRIIMRCWLCWKCKS` gave Binding of Control serum Blood-bank to linear peptides of 0.4

Lab note: `CWKCKSKNPLLYDAN` gave Binding of Control serum Blood-bank to linear peptides of 0.7

Lab note: `TMTTVYHITVSQIQL` gave Binding of Control serum Blood-bank to linear peptides of 0.6

Lab note: `NKLVKDPPNVQIHTI` gave Binding of Control serum Blood-bank to linear peptides of 1.0

Lab note: `EEVQQELYSPLFLIV` gave Binding of Control serum Blood-bank to linear peptides of 0.6

Lab note: `STAWLCALGKVLPFH` gave Binding of Control serum Blood-bank to linear peptides of 0.9

Lab note: `YLYALIYFLQCINAC` gave Binding of Control serum Blood-bank to linear peptides of 0.5

Lab note: `SKKTTKLVVILRIGT` gave Binding of Control serum Blood-bank to linear peptides of 0.6

Lab note: `LVKPTVYVYSRVKNL` gave Binding of Control serum Blood-bank to linear peptides of 0.8

Lab note: `QHQNSKKTTKLVVIL` gave Binding of Control serum Blood-bank to linear peptides of 0.5

Lab note: `EGALNTPKDHIGTRN` gave Binding of Control serum Blood-bank to linear peptides of 0.7

Lab note: `YMAISPKFTTSLSLH` gave Binding of Control serum Blood-bank to linear peptides of 0.7

Lab note: `QQQQGQTVTKKSAAE` gave Binding of Control serum Blood-bank to linear peptides of 0.6

Lab note: `EGSRGGSQASSRSSS` gave Binding of Control serum Blood-bank to linear peptides of 1.0

Lab note: `VKDPPNVQIHTIDGS` gave Binding of Control serum Blood-bank to linear peptides of 0.4

Lab note: `MCLKILVRYNTRGNT` gave Binding of Control serum Blood-bank to linear peptides of 0.8
